Test system: ncRNAs (SEQ ID NO 28-89)
test_name: ncRNA arrays of melanocytes, keratinocytes, normal skin, melanoma cell lines and patient samples
Parameters: species or system human
stated_conditions: melanoma patient 7 sample compared to normal skin
value_kind: ncRNA array expression, patient 7
Form: value (number only, do not type unit).

Param request: ncRNA array expression, patient 7 | system ncRNAs (SEQ ID NO 28-89) | item SEQ ID NO 55 (CCTCTCCCCTTCTTGCAAAAAATATTCTATATTCAAGTTTAGGAGAAAACAGAATACTTG; listed as DNA, chemistry not given here; listed as Homo sapiens) −1.9789

Param request: ncRNA array expression, patient 7 | system ncRNAs (SEQ ID NO 28-89) | item SEQ ID NO 88 (CTGTTGCTTATTCTGGGAGCCCAATCCTAGGCTGAGGGAGGTGGGCGCGGGGCTGTTTAA; listed as DNA, chemistry not given here; listed as Homo sapiens) −1.165

Param request: ncRNA array expression, patient 7 | system ncRNAs (SEQ ID NO 28-89) | item SEQ ID NO 33 (TATTGAATGTACACAAGTAATGATGGAGTTTGATTATATGGTTCATTTTCATTTATCCTA; DNA, backbone and methylation of C not given here; listed as Homo sapiens) 2.379

Param request: ncRNA array expression, patient 7 | system ncRNAs (SEQ ID NO 28-89) | item SEQ ID NO 71 (AAAATTCCAAGAGGGCCTTTTCGAATAGACGCATGAACGGTGTTTGTGTCTGGATCGTCC; listed as DNA, chemistry not given here; listed as Homo sapiens) 1.936

Param request: ncRNA array expression, patient 7 | system ncRNAs (SEQ ID NO 28-89) | item SEQ ID NO 86 (AAAATTATTTTATCTTAAGTTTCCATTTAGTTGATTAAAAATAGGGTTATGAATGTTAAA; listed as DNA, chemistry not given here; listed as Homo sapiens) −0.1079

Further cases:
Param request: ncRNA array expression, patient 7 | system ncRNAs (SEQ ID NO 28-89) | item SEQ ID NO 87 (GGGATATTTTTAAGGGGAAGGGGAAGGATAGAGAGAAAGTGCAGGCAGGGCTGGGGTCTG; listed as DNA, chemistry not given here; listed as Homo sapiens) −2.468

Param request: ncRNA array expression, patient 7 | system ncRNAs (SEQ ID NO 28-89) | item SEQ ID NO 47 (GTATTTGTAATATTTGATTTGCTTTTAGCAGAGAAAACAATAAAAGAATCCAGGAAAAGT; listed as DNA, chemistry not given here; listed as Homo sapiens) −2.368

Param request: ncRNA array expression, patient 7 | system ncRNAs (SEQ ID NO 28-89) | item SEQ ID NO 50 (GTTATTATAACCAATGCAGACTTTAAAATCCCACCTGGACATCGGGTGAGAGGAGGAGGG; listed as DNA, chemistry not given here; listed as Homo sapiens) −1.978

Param request: ncRNA array expression, patient 7 | system ncRNAs (SEQ ID NO 28-89) | item SEQ ID NO 58 (ATTTATTTGACTCTAAAATGACAATATAACAACTATAAGGAATTGATATGATGTCCTTAC; listed as DNA, chemistry not given here; listed as Homo sapiens) −1.2619

Param request: ncRNA array expression, patient 7 | system ncRNAs (SEQ ID NO 28-89) | item SEQ ID NO 37 (ACGCACTGGGCGTTGAAGCAGTGCTTTCTGGATTAAATACGAAATACTGATGTCACAAGC; DNA, backbone and methylation of C not given here; listed as Homo sapiens) 1.933

Param request: ncRNA array expression, patient 7 | system ncRNAs (SEQ ID NO 28-89) | item SEQ ID NO 30 (ATTCCAAGGCCTATTAAAATTTCTGAGCATTGCCCATTTCTTTTGCTTTATCTGTAGGAC; DNA, backbone and methylation of C not given here; listed as Homo sapiens) 4.639

Param request: ncRNA array expression, patient 7 | system ncRNAs (SEQ ID NO 28-89) | item SEQ ID NO 76 (TGTTTCTAATGCATACTGTGAAAGGAAAAAAAATCACAGTTATCCACCTTCTCAGGGCCT; listed as DNA, chemistry not given here; listed as Homo sapiens) −1.741

Param request: ncRNA array expression, patient 7 | system ncRNAs (SEQ ID NO 28-89) | item SEQ ID NO 59 (TGTGCAGCAGTATCAAAGGTCCTTAAATTCTCAACAATGAAGGAAAAACAAAAACCCATT; listed as DNA, chemistry not given here; listed as Homo sapiens) −0.9325

Param request: ncRNA array expression, patient 7 | system ncRNAs (SEQ ID NO 28-89) | item SEQ ID NO 53 (ATATATTTAGATAGTACTATGTTTCGTTTTCTTCCGATTTCAGGGATCCTTTTGTCTTAC; listed as DNA, chemistry not given here; listed as Homo sapiens) −2.068

Param request: ncRNA array expression, patient 7 | system ncRNAs (SEQ ID NO 28-89) | item SEQ ID NO 31 (TTGCTTTTGTATTTGTAATTTTATGACATTTCGAAGTTTCTGTGTCTTAACTCTTTTTAA; listed as DNA, chemistry not given here; listed as Homo sapiens) 4.22

Param request: ncRNA array expression, patient 7 | system ncRNAs (SEQ ID NO 28-89) | item SEQ ID NO 43 (CTTAATCCACATTTGTTTTGAATTTTTCTGATTCCTATAGTACCATACTCTGATGCCTAT; listed as DNA, chemistry not given here; listed as Homo sapiens) −1.541

Param request: ncRNA array expression, patient 7 | system ncRNAs (SEQ ID NO 28-89) | item SEQ ID NO 70 (AGTTATAGAGGAGGCTCAGGAGGATCTGGGGAAACGGGACCAGAGGGTAAGATGGGTTAT; listed as DNA, chemistry not given here; listed as Homo sapiens) −1.751

Param request: ncRNA array expression, patient 7 | system ncRNAs (SEQ ID NO 28-89) | item SEQ ID NO 68 (CAAAAAGAAATCTTGTTTACTTGTAAAAATATAGACTACCTCCTACTTGCCACCGTTAAG; listed as DNA, chemistry not given here; listed as Homo sapiens) −2.078

Where do the numbers come from? From patent US20110143948A1.
